Tested on: LXRb:RXRa (NR concentration 270 nM, RXRa partner concentration 90 nM)
Experiment: PBM binding z-score (relative to random genomic background probes); higher = stronger binding; sequences stand for … in GC…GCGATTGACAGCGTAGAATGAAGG
Label 1 for high-side PBM binding z-score (at or above 1) and 0 for low-side PBM binding z-score (below it).

Exercise: Evaluate "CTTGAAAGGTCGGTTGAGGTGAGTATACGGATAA" : PBM binding z-score at minimum 1?
Key: 1

Exercise: Evaluate "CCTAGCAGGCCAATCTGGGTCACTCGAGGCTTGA" : PBM binding z-score at minimum 1?
Key: 0

Exercise: Evaluate "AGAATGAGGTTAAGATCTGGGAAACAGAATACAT" : PBM binding z-score at minimum 1?
Key: 1

Exercise: Evaluate "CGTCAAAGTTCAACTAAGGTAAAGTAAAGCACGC" : PBM binding z-score at minimum 1?
Key: 1

Exercise: Evaluate "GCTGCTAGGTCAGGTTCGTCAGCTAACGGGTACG" : PBM binding z-score at minimum 1?
Key: 0

Exercise: Evaluate "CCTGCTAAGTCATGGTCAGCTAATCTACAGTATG" : PBM binding z-score at minimum 1?
Key: 0

Exercise: Evaluate "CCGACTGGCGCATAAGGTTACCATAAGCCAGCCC" : PBM binding z-score at minimum 1?
Key: 0

Exercise: Evaluate "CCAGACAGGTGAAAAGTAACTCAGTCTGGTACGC" : PBM binding z-score at minimum 1?
Key: 0

Exercise: Evaluate "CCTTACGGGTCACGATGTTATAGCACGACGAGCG" : PBM binding z-score at minimum 1?
Key: 1

Exercise: Evaluate "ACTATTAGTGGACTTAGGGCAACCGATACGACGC" : PBM binding z-score at minimum 1?
Key: 0

Exercise: Evaluate "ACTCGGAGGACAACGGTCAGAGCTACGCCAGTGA" : PBM binding z-score at minimum 1?
Key: 0

Exercise: Evaluate "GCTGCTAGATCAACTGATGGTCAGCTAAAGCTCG" : PBM binding z-score at minimum 1?
Key: 0

Exercise: Evaluate "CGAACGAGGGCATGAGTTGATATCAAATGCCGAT" : PBM binding z-score at minimum 1?
Key: 0

Exercise: Evaluate "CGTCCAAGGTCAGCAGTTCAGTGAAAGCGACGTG" : PBM binding z-score at minimum 1?
Key: 1

Exercise: Evaluate "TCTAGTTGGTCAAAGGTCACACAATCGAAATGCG" : PBM binding z-score at minimum 1?
Key: 1

Exercise: Evaluate "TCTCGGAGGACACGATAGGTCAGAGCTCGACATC" : PBM binding z-score at minimum 1?
Key: 0

Exercise: Evaluate "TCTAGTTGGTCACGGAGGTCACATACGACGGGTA" : PBM binding z-score at minimum 1?
Key: 1

Exercise: Evaluate "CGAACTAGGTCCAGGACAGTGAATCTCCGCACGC" : PBM binding z-score at minimum 1?
Key: 0

Exercise: Evaluate "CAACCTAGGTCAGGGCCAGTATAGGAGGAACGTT" : PBM binding z-score at minimum 1?
Key: 0

Exercise: Evaluate "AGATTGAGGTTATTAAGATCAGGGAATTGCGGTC" : PBM binding z-score at minimum 1?
Key: 1

Exercise: Evaluate "CAAACTAGGTCGAGAGGTCAAAGTCCGCTTCCCG" : PBM binding z-score at minimum 1?
Key: 1

Exercise: Evaluate "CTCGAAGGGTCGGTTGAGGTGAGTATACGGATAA" : PBM binding z-score at minimum 1?
Key: 0

Exercise: Evaluate "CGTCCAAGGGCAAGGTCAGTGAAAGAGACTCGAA" : PBM binding z-score at minimum 1?
Key: 1

Exercise: Evaluate "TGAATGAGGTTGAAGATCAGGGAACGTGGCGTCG" : PBM binding z-score at minimum 1?
Key: 0

Exercise: Evaluate "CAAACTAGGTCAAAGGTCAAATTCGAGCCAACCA" : PBM binding z-score at minimum 1?
Key: 1

Exercise: Evaluate "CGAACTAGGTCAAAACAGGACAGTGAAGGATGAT" : PBM binding z-score at minimum 1?
Key: 1

Exercise: Evaluate "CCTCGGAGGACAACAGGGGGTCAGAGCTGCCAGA" : PBM binding z-score at minimum 1?
Key: 1

Exercise: Evaluate "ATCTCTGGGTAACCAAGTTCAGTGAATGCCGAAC" : PBM binding z-score at minimum 1?
Key: 0

Exercise: Evaluate "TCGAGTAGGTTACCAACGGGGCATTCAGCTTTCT" : PBM binding z-score at minimum 1?
Key: 0

Exercise: Evaluate "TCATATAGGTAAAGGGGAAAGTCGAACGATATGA" : PBM binding z-score at minimum 1?
Key: 0

Exercise: Evaluate "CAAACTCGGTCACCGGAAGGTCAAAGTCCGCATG" : PBM binding z-score at minimum 1?
Key: 1

Exercise: Evaluate "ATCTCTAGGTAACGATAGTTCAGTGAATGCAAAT" : PBM binding z-score at minimum 1?
Key: 1

Exercise: Evaluate "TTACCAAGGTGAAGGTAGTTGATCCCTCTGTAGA" : PBM binding z-score at minimum 1?
Key: 0

Exercise: Evaluate "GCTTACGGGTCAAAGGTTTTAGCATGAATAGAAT" : PBM binding z-score at minimum 1?
Key: 1

Exercise: Evaluate "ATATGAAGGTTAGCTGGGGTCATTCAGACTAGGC" : PBM binding z-score at minimum 1?
Key: 1

Exercise: Evaluate "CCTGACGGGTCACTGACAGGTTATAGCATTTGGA" : PBM binding z-score at minimum 1?
Key: 1

Exercise: Evaluate "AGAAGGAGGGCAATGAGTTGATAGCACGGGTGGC" : PBM binding z-score at minimum 1?
Key: 0

Exercise: Evaluate "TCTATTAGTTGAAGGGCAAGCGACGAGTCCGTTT" : PBM binding z-score at minimum 1?
Key: 0

Exercise: Evaluate "CCTTACGGGTCAAGGTTAGAGCACGGGTGGTACG" : PBM binding z-score at minimum 1?
Key: 1

Exercise: Evaluate "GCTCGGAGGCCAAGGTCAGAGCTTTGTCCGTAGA" : PBM binding z-score at minimum 1?
Key: 0

Exercise: Evaluate "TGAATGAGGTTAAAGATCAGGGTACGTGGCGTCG" : PBM binding z-score at minimum 1?
Key: 1

Exercise: Evaluate "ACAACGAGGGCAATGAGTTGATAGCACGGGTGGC" : PBM binding z-score at minimum 1?
Key: 0

Exercise: Evaluate "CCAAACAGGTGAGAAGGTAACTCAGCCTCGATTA" : PBM binding z-score at minimum 1?
Key: 0

Exercise: Evaluate "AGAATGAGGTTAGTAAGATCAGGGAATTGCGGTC" : PBM binding z-score at minimum 1?
Key: 0

Exercise: Evaluate "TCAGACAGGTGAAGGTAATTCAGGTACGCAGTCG" : PBM binding z-score at minimum 1?
Key: 1

Exercise: Evaluate "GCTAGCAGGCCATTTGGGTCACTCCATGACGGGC" : PBM binding z-score at minimum 1?
Key: 0

Exercise: Evaluate "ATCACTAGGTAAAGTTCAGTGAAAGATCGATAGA" : PBM binding z-score at minimum 1?
Key: 1

Exercise: Evaluate "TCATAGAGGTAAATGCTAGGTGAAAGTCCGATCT" : PBM binding z-score at minimum 1?
Key: 0

Exercise: Evaluate "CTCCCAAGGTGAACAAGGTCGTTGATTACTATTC" : PBM binding z-score at minimum 1?
Key: 1

Exercise: Evaluate "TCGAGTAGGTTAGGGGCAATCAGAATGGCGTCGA" : PBM binding z-score at minimum 1?
Key: 0

Exercise: Evaluate "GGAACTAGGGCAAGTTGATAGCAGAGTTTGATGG" : PBM binding z-score at minimum 1?
Key: 0

Recorded values, source the supplement of paper PMC6555819.
